measurementNotes: Plasma pharmacokinetics (LC/MS-MS)
Format: in vivo, human
testConditions: human, plasma, oral, 500 mg, Cohort 12 (500 mg BID 5/2); Cycle 1, Day 1; read-out: Mean Cmax
measuredProperty: Cmax (ng/mL)

INSERT INTO results (compound, measuredproperty, quantityunit, reportedvalue) VALUES
  ('CC(C)(C)c1ccc(Oc2ccc(N)cn2)cc1 [CB-103]', 'Cmax', 'ng/mL', 2390);

###

measurementNotes: Plasma pharmacokinetics (LC/MS-MS)
Type: in vivo, human
testConditions: human, plasma, oral, 250 mg, Cohort 9 (250 mg BID); Cycle 1, Day 8; read-out: Mean AUC24
measuredProperty: AUC (ng·h/mL)

INSERT INTO results (smilesdata, reportedvalue) VALUES
  ('CC(C)(C)c1ccc(Oc2ccc(N)cn2)cc1', 11700);

###

measurementNotes: Plasma pharmacokinetics (LC/MS-MS)
Assay type: in vivo, human
testConditions: human, plasma, oral, 400 mg, Cohort 11 (400 mg BID 5/2); Cycle 1, Day 1; read-out: Mean Cmax
Protocol: Plasma pharmacokinetics were assessed for CB-103 via blood samples taken on days 1 (predose, 0.5, 1, 2, 4, 6, 8 hours postdose ± 5 minutes, and 12 hours postdose ± 15 minutes), 2 (24-hour post-day 1, predose), 3 (predose), 8 (predose, 0.5, 1, 2, 4, 6, and 8 hour postdose ± 5 minutes), 9 (24-hour post-day 8, predose), 15, and 22 (predose, and 1 hour postdose) in cycle 1. […]
measuredProperty: Cmax (ng/mL)

INSERT INTO assay_data (compound, measuredproperty, reportedvalue) VALUES
  ('CC(C)(C)c1ccc(Oc2ccc(N)cn2)cc1 [CB-103]', 'Cmax', 1620);

###

measurementNotes: Plasma pharmacokinetics (LC/MS-MS)
Format: in vivo, human
testConditions: human, plasma, oral, 148 mg, Cohort 5 (148 mg); Cycle 1, Day 1; read-out: Mean Cmax
measuredProperty: Cmax

INSERT INTO results (smilesdata, reportedvalue) VALUES
  ('CC(C)(C)c1ccc(Oc2ccc(N)cn2)cc1', '0.482 µg/mL');

###

measurementNotes: Plasma pharmacokinetics (LC/MS-MS)
Type: in vivo, human
testConditions: human, plasma, oral, 250 mg, Cohort 9 (250 mg BID); Cycle 1, Day 8; read-out: Mean Cmax
measuredProperty: Cmax

INSERT INTO results (smilesdata, measuredproperty, reportedvalue) VALUES
  ('CC(C)(C)c1ccc(Oc2ccc(N)cn2)cc1', 'Cmax', '1310 ng/mL');

###

measurementNotes: Plasma pharmacokinetics (LC/MS-MS)
Format: in vivo, human
testConditions: human, plasma, oral, 104 mg, Cohort 4 (104 mg); Cycle 1, Day 1; read-out: Mean AUC24
Description: Plasma pharmacokinetics were assessed for CB-103 via blood samples taken on days 1 (predose, 0.5, 1, 2, 4, 6, 8 hours postdose ± 5 minutes, and 12 hours postdose ± 15 minutes), 2 (24-hour post-day 1, predose), 3 (predose), 8 (predose, 0.5, 1, 2, 4, 6, and 8 hour postdose ± 5 minutes), 9 (24-hour post-day 8, predose), 15, and 22 (predose, and 1 hour postdose) in cycle 1. […]
measuredProperty: AUC (ng·h/mL)

INSERT INTO results (smilesdata, quantityunit, reportedvalue) VALUES
  ('CC(C)(C)c1ccc(Oc2ccc(N)cn2)cc1', 'ng·h/mL', 1440);

###

measurementNotes: Plasma pharmacokinetics (LC/MS-MS)
Format: in vivo, human
testConditions: human, plasma, oral, 104 mg, Cohort 4 (104 mg); Cycle 1, Day 8; read-out: Mean Cmax
Description: Plasma pharmacokinetics were assessed for CB-103 via blood samples taken on days 1 (predose, 0.5, 1, 2, 4, 6, 8 hours postdose ± 5 minutes, and 12 hours postdose ± 15 minutes), 2 (24-hour post-day 1, predose), 3 (predose), 8 (predose, 0.5, 1, 2, 4, 6, and 8 hour postdose ± 5 minutes), 9 (24-hour post-day 8, predose), 15, and 22 (predose, and 1 hour postdose) in cycle 1. […]
measuredProperty: Cmax (ng/mL)

INSERT INTO assay_data (compound, quantityunit, reportedvalue) VALUES
  ('CC(C)(C)c1ccc(Oc2ccc(N)cn2)cc1 [CB-103]', 'ng/mL', 418);

###

measurementNotes: Plasma pharmacokinetics (LC/MS-MS)
Format: in vivo, human
testConditions: human, plasma, oral, 500 mg, individual patients; total dose 500 mg, twice daily dosing; read-out: Cmax
measuredProperty: Cmax

INSERT INTO measurements (smilesdata, measuredproperty, reportedvalue) VALUES
  ('CC(C)(C)c1ccc(Oc2ccc(N)cn2)cc1', 'Cmax', '1.23 µg/mL');
